The compounds listed here are annotated with their pKi.
- target of assay: UniProtKB P21917
- Sequence (P21917 whole entry): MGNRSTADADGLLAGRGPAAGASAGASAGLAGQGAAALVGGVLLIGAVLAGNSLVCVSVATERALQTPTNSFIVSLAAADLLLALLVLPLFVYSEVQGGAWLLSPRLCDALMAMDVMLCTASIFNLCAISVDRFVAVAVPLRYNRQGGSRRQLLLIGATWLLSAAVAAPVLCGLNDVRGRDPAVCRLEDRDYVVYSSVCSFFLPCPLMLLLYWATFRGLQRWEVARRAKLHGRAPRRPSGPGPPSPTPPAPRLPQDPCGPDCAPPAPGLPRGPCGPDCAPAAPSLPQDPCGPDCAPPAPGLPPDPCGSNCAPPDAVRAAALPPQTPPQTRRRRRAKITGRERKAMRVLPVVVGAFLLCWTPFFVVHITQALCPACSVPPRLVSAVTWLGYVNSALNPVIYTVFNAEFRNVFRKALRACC
# log scale: pKi equals minus log10 of the concentration in mol/L

// below: answered compounds
*Q* I would be grateful if you could share the reported pKi for O=C(CCCN1C2CCC1CC(c1ccccc1)C2)c1ccc(F)cc1 (stereo not drawn) .
*A* 6.75

*Q* I would be grateful if you could share the reported pKi for O=C(CCCN1C2CCC1CC(c1ccc(Cl)cc1)C2)c1ccc(F)cc1 (stereo not drawn) .
*A* 6.46

# ---- query compound ----
*Q* I would be grateful if you could share the reported pKi for O=C(CCCN1C2CCC1CC(O)(c1ccccc1)C2)c1ccc(F)cc1 (stereo not drawn) .
*A* 7.72
